What TGI was measured for each of the following?
# System: MCF7 breast
# Test Method Notes: NCI tumour cell line growth inhibition, 48 h

INSERT INTO results (compound, reported_property, recorded_measurement) VALUES
  ('COc1ccc(NC(=O)CC(=O)N2N=C(C)C(N=Nc3ccc(S(=O)(=O)c4ccc(N=NC5C(=O)N(C(=O)CC(=O)Nc6ccc(OC)cc6)N=C5C)cc4)cc3)C2=O)cc1 (configuration not stated)', 'TGI', '> 100 µM'),
  ('COc1ccc([C@@H]2ON(C)[C@H]3CN(C)C(=O)[C@@H]23)cc1', 'TGI', '> 100 µM'),
  ('Cc1c(/C=N/NC(=S)Nc2ccccc2Cl)c(=O)n(-c2ccccc2)n1C', 'TGI', '> 100 µM'),
  ('Nc1ncnc2[nH]ncc12', 'TGI', '> 100 µM'),
  ('C=CC(=O)N1CCN(c2ccc3cccc(NC(=O)c4cnc(C)cn4)c3n2)CC1', 'TGI', '> 100 µM'),
  ('C=C1CC[C@@H]2[C@](C)(COC(C)=O)[C@@H](O)CC[C@@]2(C)[C@@H]1COc1ccc2ccc(=O)oc2c1', 'TGI', '> 100 µM');

I'm hoping you can list TGI for every compound here, please.
1. O=C1C2CC=CCC2C(=O)N1n1c(-c2ccccc2)n[nH]c1=O (configuration not stated)
2. CNC(=O)OCc1c(COC(=O)NC)c(C)n(-c2ccc(Br)cc2)c1C
3. C/C(=N\Nc1nc2ccccc2s1)c1ncccn1
4. O=C(/C(=C/c1ccc([N+](=O)[O-])cc1)c1ccccc1)c1ccccc1

Response:
> 100 µM
25.9 µM
> 100 µM
> 100 µM

Respectfully, I request TGI for each entry included below.
1. O=c1cc(-c2cccc(Cl)c2)[nH]c2ncccc12
2. CCC(NC(C)c1ccccc1)C(O)c1ccc(OCc2ccccc2)c(OCc2ccccc2)c1 (configuration not stated)
3. CC1=C2C(=O)c3ccccc3C(=O)[C@H]2[C@H]2CCO[C@H]2O1

Response:
1. > 100 µM
2. 31.1 µM
3. 23.6 µM

Go through the items and report each one's TGI.
1. O=C(N/N=C/c1ccc2c(c1)CCC2)c1ccccc1O
2. N#Cc1c(N/N=C/c2c(Cl)cccc2Cl)nc(N)nc1N1CCOCC1
3. N#CC(C#N)=Cc1ccc2c(c1)OC(Cl)O2 (configuration not stated)
4. O=c1oc2ccccc2c2c(=O)c3ccc(OC/C(=N/O)c4ccc(Cl)cc4)cc3oc12

Response:
1. 34 µM
2. > 100 µM
3. > 100 µM
4. 49.6 µM

Give measured TGI for every item shown.
1. O=C(NN1C(=O)CSC12CCCCC2)c1[nH]c2ccc(F)cc2c1-c1ccccc1
2. COc1cccc(NC(=O)c2sc3nc4c(cc3c2N)CN(Cc2ccccc2)CC4)c1
3. O=c1ccc2cc(O)c(O)cc2o1
4. C=CC(=O)N(C)[C@H]1C[C@H]2OC(C)(C1OC)n1c3ccccc3c3c4c(c5c6ccccc6n2c5c31)C(=O)NC4 (some centres not stated)
5. CC(C)(C)c1ccc(OCCCCCCN2CCNCC2)cc1

Response:
["37.3 µM", "> 100 µM", "> 100 µM", "> 50 µM", "10.3 µM"]

----------
# System: HCT-116 colon
# Test Method Notes: NCI tumour cell line growth inhibition, 48 h
Reported Property: TGI

Please review the entries below; each comes with its answer.
INSERT INTO results (compound, study_target, recorded_measurement) VALUES
  ('CCN=C1C=CC(=C(c2ccc(N)cc2)c2ccc(N(CC)CC)c(C)c2)C=C1', 'HCT-116 colon', '1.11 µM'),
  ('O=C(c1ccccc1)c1ccc(COc2ccc(C(c3c(O)c4ccccc4oc3=O)c3c(O)c4ccccc4oc3=O)cc2)cc1', 'HCT-116 colon', '> 100 µM');

# map each compound to its TGI
1. CC1=C2C(=O)c3ccccc3C(=O)[C@H]2[C@H]2CCO[C@H]2O1
2. Brc1cccc(C2SCc3nc4ccccc4n32)c1 (stereo unspecified)
3. Cc1ccccc1N=Nc1ccc(N=Nc2c(O)ccc3ccccc23)c(C)c1
4. Cc1ccc(C2=NOC3=c4ccccc4=CSC3=C2c2ccc([N+](=O)[O-])cc2)cc1
5. CC1(CCC2C=CCC2)CCCNC1=S (stereo unspecified)
6. N=C(N)c1ccc(N2CCCN(c3ccc(C(=N)N)cc3)CC2)cc1
7. O=C(NCCCCCCCCNC(=O)c1cc(-c2ccccc2)nc2ccccc12)c1cc(-c2ccccc2)nc2ccccc12
8. CS(=O)(=O)Oc1cccc(/C=N/N=C(\N)NO)c1

Response:
1. 79 µM
2. 29.4 µM
3. > 100 µM
4. > 100 µM
5. > 10 µM
6. > 100 µM
7. > 100 µM
8. > 100 µM

For every item in the list below, what is its measured TGI?
1. N#Cc1c(N)oc(-c2cccc([N+](=O)[O-])c2)c1C#N
2. CC12CCC(C(=O)OC1=O)C(C)(C)O2 (stereo unspecified)
3. O=C(O)C/C=C/CC(=O)O
4. CN(C)CCCN1c2ccccc2CCc2ccc(Cl)cc21

Response:
["> 100 µM", "> 100 µM", "> 100 µM", "12.3 µM"]

Please supply TGI for each of the following items, keeping them in order.
1. COC(=O)C1CCC(=O)N1CN(C(C)=O)c1ccccc1 (stereo unspecified)
2. CN(C(=O)Cc1cc(Cl)c(Cl)cc1N=C=S)[C@H]1CCCC[C@@H]1N1CCCC1
3. COc1ccc([C@@H]2ON(C)[C@H]3CN(C)C(=O)[C@@H]23)cc1
4. C[C@@H]1CC[C@H]2C(COCCOCC3=C(C(F)(F)F)O[C@@H]4O[C@@]5(C)CC[C@H]6[C@H](C)CC[C@@H]3[C@@]46OO5)=C(C(F)(F)F)O[C@@H]3O[C@@]4(C)CC[C@@H]1[C@]32OO4
5. O=c1cc(-c2ccccc2)[nH]c2cc(O)ccc12
6. C=Cc1c(C)c(OC)cc2c1Oc1ccc(OC)c(C)c1CC2
7. Cc1ccc(N2C(=O)C3c4[nH]c5ccccc5c4C4CCC(C(C)(C)C)CC4C3C2=O)cc1 (stereo unspecified)

Response:
1. > 100 µM
2. 21.7 µM
3. > 100 µM
4. > 100 µM
5. 31.3 µM
6. > 100 µM
7. 24.6 µM
